# key: entry, value: IC50
- Test system: IL-2 production
- experiment description: Inhibition of IL-2 production in PHA-activated Jurkat cells (ELISA)
- Assay type: cell-based
- settings: Homo sapiens, Jurkat, 20 h, PHA 2.5 μg/mL, IL-2 ELISA

item smiles	target system	IC50
Cc1nc(-c2ccc3c(c2)CCCc2nc(NC(=O)c4c(F)cccc4F)sc2-3)no1	IL-2 production	30 to 100 nM
O=c1oc2ccc(C(F)(F)F)cc2c2sc(NCc3c(F)cccc3F)nc12	IL-2 production	> 1000 nM
O=C(Nc1c(F)cccc1F)c1nc2c(s1)-c1cc(-c3ccncc3)ccc1CCC2	IL-2 production	30 to 100 nM
COc1cccc2c1CCCc1nc(NC(=O)c3c(F)cccc3F)sc1-2	IL-2 production	≤ 30 nM

###

- Tested on: IL-2 production
- experiment description: Inhibition of IL-2 production in PHA-activated Jurkat cells (ELISA)
- Assay type: cell-based
- settings: Homo sapiens, Jurkat, 20 h, PHA 2.5 μg/mL, IL-2 ELISA
pIC50: −log10 of the molar value.
# key: entry, value: pIC50

item smiles	pIC50
O=C(Nc1c(F)cccc1F)c1ccc2c(c1)CCCc1cnc(-c3cccnc3)nc1-2	6.60 to 7.00
O=C(Nc1nc2c(s1)-c1cccc(O)c1CCC2)c1c(F)cccc1F	7.00 to 7.52
Nc1ccc(-c2ccc3c(c2)-c2sc(C(=O)Nc4c(F)cccc4F)nc2CCC3)cn1	7.00 to 7.52
O=C(Nc1c(F)cccc1F)c1nc2c(s1)-c1ccccc1CCC2	< 6.00
N#Cc1ccc2c(c1)-c1sc(NC(=O)c3c(F)cccc3F)nc1CCC2	< 6.00
COc1cccc2c1CCCc1nc(NC(=O)c3c(F)cccc3F)ncc1-2	6.60 to 7.00
O=C(Nc1nc2c(s1)-c1ccc(I)cc1CCC2)c1c(F)cccc1F	7.00 to 7.52
O=C(Nc1c(F)cccc1F)c1nc2c(s1)-c1cc(-c3cnco3)ccc1CCC2	≥ 7.52
COC(=O)c1ccc2c(c1)CCCc1nc(NC(=O)c3c(F)cccc3F)sc1-2	7.00 to 7.52

###

- Test system: IL-2 production
- experiment description: Inhibition of IL-2 production in PHA-activated Jurkat cells (ELISA)
- Format: cell-based
- settings: Homo sapiens, Jurkat, 20 h, PHA 2.5 μg/mL, IL-2 ELISA
pIC50: −log10 of the molar value.

molecule	pIC50
O=C(Nc1nc2c(s1)-c1cc(Br)sc1CCC2)c1c(F)cccc1F [Compound 84]	< 6.00
O=C(Nc1ccc2c(c1)CCCc1cnc(-c3ccncc3)nc1-2)c1c(F)cccc1F [Compound 108]	7.00 to 7.52
O=C(Nc1nc2c(s1)-c1ccsc1CCC2)c1c(F)cccc1F [Compound 85]	< 6.00
O=C(Nc1c(F)cccc1F)c1nc2c(s1)-c1cc(-c3ccc(O)nc3)ccc1CCC2 [Compound 117]	6.60 to 7.00
COc1ccc2c(c1)-c1sc(/C(=N\O)Nc3c(F)cccc3F)nc1CCC2 [Compound 147]	6.00 to 6.30
CN1Cc2ccc(Br)cc2-c2sc(NC(=O)c3c(F)cccc3F)nc2C1 [Compound 138]	6.30 to 6.60
COc1ccc2c(c1)-c1sc(NC(=O)Nc3c(F)cccc3F)nc1CCC2 [Compound 154]	6.00 to 6.30
Cn1cc(-c2ccc3c(c2)-c2sc(C(=O)Nc4c(F)cccc4F)nc2CCC3)cn1 [Compound 127]	≥ 7.52
COc1ccc2c(c1)-c1sc(C(=O)Nc3c(F)cccc3F)nc1CCC2 [Compound 5]	≥ 7.52
O=C(Nc1c(F)cccc1F)c1nc2c(s1)-c1cc(-c3ccc(F)nc3)ccc1CCC2 [Compound 120]	6.30 to 6.60
O=C(Nc1c(F)cccc1F)c1nc2c(s1)-c1cc(-c3cnc[nH]3)ccc1CCC2 [Compound 131]	6.00 to 6.30
O=C(Nc1c(F)cccc1F)c1nc2c(s1)-c1nc(-c3cccnc3)sc1CCC2 [Compound 133]	7.00 to 7.52
COc1ccc2c(c1)CCCc1c-2ncc(NC(=O)c2c(F)cccc2F)[n+]1[O-] [Compound 97]	6.00 to 6.30
O=C(Nc1c(F)cccc1F)c1nc2c(s1)-c1cc(-c3ccnc(F)c3)ccc1CCC2 [Compound 118]	6.60 to 7.00
O=C(Nc1nc2c(s1)-c1ccc(-c3nccs3)cc1CCC2)c1c(F)cccc1F [Compound 75]	6.60 to 7.00
COc1cccc2c1CCCc1nc(C(=O)Nc3c(F)cccc3F)sc1-2 [Compound 6]	6.30 to 6.60
COc1cccc2c1CCCc1nc(C(=O)Nc3ccncc3C)sc1-2 [Compound 11]	< 6.00
O=Cc1cccc2c1CCCc1nc(NC(=O)c3c(F)cccc3F)sc1-2 [Compound 67]	6.00 to 6.30

Provenance of the data: patent US8779154B2
